assay: Particle size distribution by laser diffraction (Malvern); type: physicochemical; settings: trihydrate
Overview of recorded Average Particle Size D50 for various compounds
Give a bare numeral; the unit μm is implied.

Example compounds with recorded Average Particle Size D50:
>>> observed_measurement("CC1(C)S[C@@H]2[C@H](NC(=O)[C@H](N)c3ccc(O)cc3)C(=O)N2[C@H]1C(=O)O.O.O.O [entry 1, amoxicillin trihydrate]")
39.8
>>> observed_measurement("CC1(C)S[C@@H]2[C@H](NC(=O)[C@H](N)c3ccc(O)cc3)C(=O)N2[C@H]1C(=O)O.O.O.O [entry 3, amoxicillin trihydrate]")
39.3

Please turn your attention to the following entry.
Task item: Need Average Particle Size D50, item CC1(C)S[C@@H]2[C@H](NC(=O)[C@H](N)c3ccc(O)cc3)C(=O)N2[C@H]1C(=O)O.O.O.O [entry 4, amoxicillin trihydrate]
Reply: 10.1
